System: KM20L2 colon
Experiment: NCI tumour cell line growth inhibition, 48 h
# TGI per record follows

Below, 3 compounds whose answers are already recorded.
In [3]: df
Out[3]:
                                   compound  measurement
0  O=C1c2ccccc2C(=O)N1CCn1nc(-c2ccccc2)cc(-c2ccccc2)c1=O     > 100 µM
1           Cc1nc2nnnn2c2c1C(=O)Nc1ccccc1N2     > 100 µM
2  CC(C)(Oc1ccc(C(=O)c2ccc(Cl)cc2)cc1Cl)C(=O)Nc1c(Cl)cccc1Cl     > 100 µM

Using the record for CC1(C)CC(=O)C(C(=O)C(=O)NC2=C(Cl)C(=O)c3ccccc3C2=O)C(=O)C1 , report its TGI.
> 100 µM
